experimental.target: cynomolgus IL-36R on BaF/3 cells (cynomolgus, UniProt A0A2K5WSK9 20-558)
Sequence (A0A2K5WSK9 entry or part of it): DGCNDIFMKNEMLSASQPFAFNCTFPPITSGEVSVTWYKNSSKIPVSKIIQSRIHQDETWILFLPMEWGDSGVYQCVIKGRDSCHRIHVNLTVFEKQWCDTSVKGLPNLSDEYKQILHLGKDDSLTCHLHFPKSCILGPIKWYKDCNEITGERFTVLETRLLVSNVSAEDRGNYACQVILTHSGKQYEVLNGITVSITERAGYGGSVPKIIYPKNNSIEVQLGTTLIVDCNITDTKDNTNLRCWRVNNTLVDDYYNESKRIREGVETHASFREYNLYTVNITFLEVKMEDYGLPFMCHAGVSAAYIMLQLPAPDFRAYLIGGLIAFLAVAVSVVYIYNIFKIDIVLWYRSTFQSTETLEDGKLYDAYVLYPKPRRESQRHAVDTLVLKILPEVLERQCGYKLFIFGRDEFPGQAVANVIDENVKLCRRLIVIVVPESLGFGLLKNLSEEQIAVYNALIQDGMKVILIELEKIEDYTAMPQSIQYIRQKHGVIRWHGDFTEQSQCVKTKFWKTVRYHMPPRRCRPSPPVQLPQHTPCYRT
assay.procedure: cell-based or functional assay
reported.metric: IC90, pNFκB, BaF/3 cynomolgus IL-36R cells, trun-IL-36a

Answered cases to consult:
antibody 81A1 (antibody, V domains shown, Mouse monoclonal from hybridoma; also called 81A1D1; Mouse 81A1) VH: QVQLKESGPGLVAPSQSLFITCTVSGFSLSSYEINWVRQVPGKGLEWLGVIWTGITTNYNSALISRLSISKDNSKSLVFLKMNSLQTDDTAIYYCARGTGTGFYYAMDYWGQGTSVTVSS VL: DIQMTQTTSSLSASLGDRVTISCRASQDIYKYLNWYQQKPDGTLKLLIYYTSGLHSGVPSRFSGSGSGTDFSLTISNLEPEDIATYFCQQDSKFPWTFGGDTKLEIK : 0.6 nM
antibody 78C8 (antibody, V domains shown, Mouse monoclonal from hybridoma; also called 78C8D1; Mouse 78C8) VH: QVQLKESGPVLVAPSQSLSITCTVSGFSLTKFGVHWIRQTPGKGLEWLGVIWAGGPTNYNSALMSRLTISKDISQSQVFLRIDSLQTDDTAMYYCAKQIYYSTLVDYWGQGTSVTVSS VL: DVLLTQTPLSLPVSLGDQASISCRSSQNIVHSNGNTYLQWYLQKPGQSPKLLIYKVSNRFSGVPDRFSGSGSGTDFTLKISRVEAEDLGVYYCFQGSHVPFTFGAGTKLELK : 1 nM
antibody 67E7 (antibody, V domains shown, Mouse monoclonal from hybridoma; also called 67E7E8) VH: EVQLQQSGAEFVRPGASVKFSCTASGFNIKDDYIHWVRQRPEQGLEWVGRIDPANGNTKYAPKFQDKATITADTSSNTAYLQLSSLTSEDTAVYYCAKSFPNNYYSYDDAFAYWGQGTLVTVSA VL: DIQMTQSPASQSASLGESVTFTCLASQTIGTWLGWYQQKPGKSPQLLIYRSTTLADGVPSRFSGSGSGTKFSFKISSLQAADFASYYCQQLYSAPYTFGGGTKLEIR : > 4 µM
antibody 89A12 (antibody, V domains shown, Mouse monoclonal from hybridoma; also called 89A12B8) VH: EVQLQQSGAELVRPGASVRLSCTASGFNIKDDYIHWVRQRPKQGLEWLGRIDPANGNTKYDPRFQDKATITADTSSNTAYLHLSSLTSEDTAVYYCAKSFPDNYYSYDDAFAYWGQGTLVTVSA VL: DIQMTQSPASQSASLGESVTFSCLASQTIGTWLGWYQQKPGKSPQLLIYRATSLADGVPSRFSGSGSGTNFSFKISSLQAEDLASYYCQQLYSGPYTFGGGTKLEIR : > 4 µM

Qu. For the binder shown here, antibody 33D10 (antibody, V domains shown, Mouse monoclonal from hybridoma; also called 33D10B12; Mouse 33D10) VH: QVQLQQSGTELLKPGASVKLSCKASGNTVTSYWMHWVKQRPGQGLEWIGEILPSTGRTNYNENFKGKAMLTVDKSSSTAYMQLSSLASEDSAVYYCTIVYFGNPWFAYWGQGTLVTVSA VL: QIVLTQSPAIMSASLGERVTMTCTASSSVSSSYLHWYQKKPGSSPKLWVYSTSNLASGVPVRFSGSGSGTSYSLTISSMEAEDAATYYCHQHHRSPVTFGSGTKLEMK , give the reported IC90, pNFκB, BaF/3 cynomolgus IL-36R cells, trun-IL-36a.
Ans. > 4 µM
